Reported solubility values for the following molecules.
assay: Solubility in aqueous solution containing 0.3% or 1% Cremophor EL (Example 3-3); type: physicochemical; conditions: 1% Cremophor EL aqueous solution, 25° C., 22 to 24 hours, read-out: solubility, 1% Cremophor EL
Bridge positions count the residues as written; N and C are the ends. Square brackets hold non-standard residues; d marks the D form. Peptide text beside a SMILES is read from it. * marks the point of attachment. hPhe(3,5-F2-4-CF3) = N[C@@H](CCc1cc(F)c(C(F)(F)F)c(F)c1)C(=O)O; NMeGly(cPent) = CN[C@H](C(=O)O)C1CCCC1; NMeCha = CN[C@@H](CC1CCCCC1)C(=O)O; Hyp = O=C(O)[C@@H]1C[C@@H](O)CN1; NMeF = CN[C@@H](Cc1ccccc1)C(=O)O; NMeD = CN[C@@H](CC(=O)O)C(=O)O; NMeL = CN[C@@H](CC(C)C)C(=O)O; NMeV = CN[C@H](C(=O)O)C(C)C; NMeA = CN[C@@H](C)C(=O)O; Piperidide = C1CCN(*)CC1; Ac5c = NC1(C(=O)O)CCCC1; Aze = O=C(O)[C@@H]1CCN1; Sar = CNCC(=O)O; tBu = CC(C)(C)*
measurement label: solubility (µg/mL)

molecule	observed
CCO[C@@H]1C[C@H]2C(=O)NC3(CCCC3)C(=O)N(C)[C@@H](C3CCCC3)C(=O)N(C)[C@H](C(=O)N(C)C)CC(=O)N(C)[C@@H](CC(C)C)C(=O)N[C@@H]([C@@H](C)CC)C(=O)N(C)[C@@H](C)C(=O)N3CC[C@H]3C(=O)N(C)[C@@H](CC3CCCCC3)C(=O)N(C)CC(=O)N[C@@H](CCc3cc(F)c(C(F)(F)F)c(F)c3)C(=O)N2C1 [Compound 8] ([NMeL]I[NMeA][Aze][NMeCha][Sar][hPhe(3,5-F2-4-CF3)][Hyp](Et)[Ac5c][NMeGly(cPent)][NMeD]-NMe2; lactam N-11)	1340
CC(C)C[C@@H]1NC(=O)[C@H](Cc2ccccc2)N(C)C(=O)[C@@H](C(C)C)NC(=O)C[C@@H](C(=O)N2CCCCC2)NC(=O)[C@H](C(C)C)N(C)C(=O)[C@H](Cc2ccccc2)N(C)C(=O)[C@H](COC(C)(C)C)NC(=O)[C@H](CC(C)C)N(C)C(=O)CN(C)C(=O)[C@H]([C@@H](C)O)NC(=O)[C@H](CC(C)C)N(C)C1=O [Compound 3] ([dV][NMeF]L[NMeL]T[Sar][NMeL]S(tBu)[NMeF][NMeV]D-Piperidide; lactam N-11)	395

###

assay: Solubility in aqueous solution containing 0.3% or 1% Cremophor EL (Example 3-3); format: physicochemical; conditions: 1% Cremophor EL aqueous solution, 25° C., 22 to 24 hours, read-out: solubility, 1% Cremophor EL
Bridge positions count the residues as written; N and C are the ends. Square brackets hold non-standard residues; d marks the D form. Peptide text beside a SMILES is read from it. * marks the point of attachment. hPhe(3-Cl-4-CF3) = N[C@@H](CCc1ccc(C(F)(F)F)c(Cl)c1)C(=O)O; NMePhe(4-Me) = CN[C@@H](Cc1ccc(C)cc1)C(=O)O; NMeGly(cPent) = CN[C@H](C(=O)O)C1CCCC1; Bta = N[C@@H](Cc1csc2ccccc12)C(=O)O; NMeCha = CN[C@@H](CC1CCCCC1)C(=O)O; NMeF = CN[C@@H](Cc1ccccc1)C(=O)O; NMeI = CC[C@H](C)[C@H](NC)C(=O)O; NMeD = CN[C@@H](CC(=O)O)C(=O)O; NMeL = CN[C@@H](CC(C)C)C(=O)O; NMeAbu = CC[C@H](NC)C(=O)O; NMeA = CN[C@@H](C)C(=O)O; Piperidide = C1CCN(*)CC1; Ac5c = NC1(C(=O)O)CCCC1; Aze = O=C(O)[C@@H]1CCN1; Sar = CNCC(=O)O; tBu = CC(C)(C)*
Reported solubility values for the following molecules.

molecule	solubility [µg/mL]
CC[C@H](C)[C@@H]1NC(=O)[C@H](CC(C)C)N(C)C(=O)C[C@@H](C(=O)N2CCOCC2)N(C)C(=O)[C@H](C2CCCC2)N(C)C(=O)C2(CCCC2)NC(=O)[C@@H]2CCCN2C(=O)[C@H](CCc2ccc(C(F)(F)F)c(Cl)c2)NC(=O)CN(C)C(=O)[C@H](Cc2ccc(C(F)(F)F)cc2)N2CCCCC[C@@H](C2=O)N(C)C(=O)CN(C)C1=O	1510
CC[C@H](C)[C@@H]1NC(=O)[C@H](CC(C)C)N(C)C(=O)C[C@@H](C(=O)N2CCCCC2)N(C)C(=O)[C@H](C2CCCC2)N(C)C(=O)C2(CCCC2)NC(=O)[C@@H]2CCCN2C(=O)[C@H](CCc2ccc(C(F)(F)F)c(Cl)c2)NC(=O)CN(C)C(=O)[C@H](CC2CCCCC2)N(C)C(=O)[C@@H]2CCN2C(=O)[C@H](C)N(C)C1=O [Compound 6] ([NMeL]I[NMeA][Aze][NMeCha][Sar][hPhe(3-Cl-4-CF3)]P[Ac5c][NMeGly(cPent)][NMeD]-Piperidide; lactam N-11)	1450
CC[C@H]1C(=O)N[C@@H](COC(C)(C)C)C(=O)N(C)[C@@H](Cc2ccccc2)C(=O)N(C)[C@@H](C)C(=O)N[C@H](C(=O)N2CCCCC2)CC(=O)N[C@H](CC(C)C)C(=O)N(C)[C@@H](CC(C)C)C(=O)N[C@@H](Cc2csc3ccccc23)C(=O)N(C)[C@@H](CC(C)C)C(=O)N[C@@H]([C@@H](C)O)C(=O)N(C)CC(=O)N1C [Compound 5] ([dL][NMeL][Bta][NMeL]T[Sar][NMeAbu]S(tBu)[NMeF][NMeA]D-Piperidide; lactam N-11)	1110
CC[C@H](C)[C@@H]1NC(=O)[C@H](CC(C)C)N(C)C(=O)C[C@@H](C(=O)N(C)C)N(C)C(=O)[C@H]([C@@H](C)CC)N(C)C(=O)C2(CCCC2)NC(=O)[C@@H]2CCCN2C(=O)[C@H](CCc2ccc(C(F)(F)F)c(Cl)c2)NC(=O)CN(C)C(=O)[C@H](Cc2ccc(C)cc2)N(C)C(=O)[C@@H]2CCN2C(=O)[C@H](C)N(C)C1=O [Compound 7] ([NMeL]I[NMeA][Aze][NMePhe(4-Me)][Sar][hPhe(3-Cl-4-CF3)]P[Ac5c][NMeI][NMeD]-NMe2; lactam N-11)	1640
CCO[C@@H]1C[C@H]2C(=O)NC3(CCC3)C(=O)N(C)[C@@H](C3CCCC3)C(=O)N(C)[C@H](C(=O)N(C)C)CC(=O)N(C)[C@@H](CC)C(=O)N[C@@H]([C@@H](C)CC)C(=O)N(C)CC(=O)N(C)[C@H]3C/C=C\CCN(C3=O)[C@@H](Cc3ccc(C(F)(F)F)cc3)C(=O)N(C)CC(=O)N[C@@H](CCc3cc(F)c(C(F)(F)F)c(F)c3)C(=O)N2C1	1680
CC(C)C[C@@H]1NC(=O)[C@H](Cc2ccccc2)N(C)C(=O)[C@H](COC(C)(C)C)NC(=O)[C@H](Cc2ccccc2)N(C)C(=O)[C@H](C)N(C)C(=O)[C@H](CC(C)C)N(C)C(=O)[C@@H](C)NC(=O)C[C@@H](C(=O)N2CCCCC2)NC(=O)[C@H](Cc2ccccc2)N(C)C(=O)[C@H]([C@@H](C)O)NC(=O)[C@H](CC(C)C)N(C)C1=O [Compound 4] ([dA][NMeL][NMeA][NMeF]S(tBu)[NMeF]L[NMeL]T[NMeF]D-Piperidide; lactam N-11)	789

###

Reported solubility at 20 h values for the following compounds.
assay: Solubility in the presence of a surfactant (Example 2-1); assay type: physicochemical; conditions: 1% Cremophor EL aqueous solution; room temperature, stirred 20 hours; read-out: solubilities, CreEL (1% aqueous solution)
Numbered stars: 1 amine (or outer) side, 2 acyl side, 3 side chain; on linkers, the order of the positions; unused ones are H or OH. Bridge positions count the residues as written; N and C are the ends. Square brackets hold non-standard residues; d marks the D form. Peptide text beside a SMILES is read from it. * marks the point of attachment. hPhe(3-Cl-4-CF3) = N[C@@H](CCc1ccc(C(F)(F)F)c(Cl)c1)C(=O)O; X1 = CN(C(CC(=O)[*:2])C(=O)C1CCCCC1)[*:1]; NMeCha = CN[C@@H](CC1CCCCC1)C(=O)O; NMeChg = CN[C@H](C(=O)O)C1CCCCC1; NMeF = CN[C@@H](Cc1ccccc1)C(=O)O; NMeI = CC[C@H](C)[C@H](NC)C(=O)O; NMeL = CN[C@@H](CC(C)C)C(=O)O; NMeV = CN[C@H](C(=O)O)C(C)C; NMeA = CN[C@@H](C)C(=O)O; Piperidide = C1CCN(*)CC1; Ac5c = NC1(C(=O)O)CCCC1; Sar = CNCC(=O)O; tBu = CC(C)(C)*
measurement label: solubility at 20 h (µg/mL)

compound	observed
CC[C@H](C)[C@@H]1NC(=O)[C@H](CC(C)C)N(C)C(=O)CC(C(=O)C2CCCCC2)N(C)C(=O)[C@H](C2CCCCC2)N(C)C(=O)C2(CCCC2)NC(=O)[C@@H]2CCCN2C(=O)[C@H](CCc2ccc(C(F)(F)F)c(Cl)c2)NC(=O)CN(C)C(=O)[C@H](CC2CCCCC2)N(C)C(=O)CN(C)C(=O)CN(C)C1=O (some centres unmarked) [Compound 1] (cyclo([Ac5c][NMeChg][X1][NMeL]I[Sar][Sar][NMeCha][Sar][hPhe(3-Cl-4-CF3)]P))	3380
CC[C@H](C)[C@H]1C(=O)N[C@@H](COC(C)(C)C)C(=O)N(C)[C@@H](Cc2ccccc2)C(=O)N(C)[C@@H](C(C)C)C(=O)N[C@H](C(=O)N2CCCCC2)CC(=O)N(C)[C@@H](C)C(=O)N(C)[C@@H](Cc2ccccc2)C(=O)N[C@@H](CC(C)C)C(=O)N(C)[C@@H](CC(C)C)C(=O)N[C@@H]([C@@H](C)O)C(=O)N(C)CC(=O)N1C [Compound 2] ([NMeA][NMeF]L[NMeL]T[Sar][NMeI]S(tBu)[NMeF][NMeV]D-Piperidide; lactam N-11)	1050

Data provenance: patent US20260273107A1
